Origin of values: patent US8329703B2

Tested on: Huh-Luc-Neo cells
experimentalDetails: Cell Titer-Glo Cell Viability Assay
Type: cell-based, human
conditions: inhibition of cell viability at 100 μM, 1 dose, conditions identical to HCV Replicon Luciferase Assay (48 h)
Protocol: Day 2, Reagent Preparation and Luciferase Assay: The Bright-Glo Luciferase Assay Buffer (Promega) is thawed and equilibrated to room temperature prior to use. The lyophilized Bright-Glo Luciferase Assay Substrate is equilibrated to room temperature prior to use. […] The well contents are mixed for 5 min. on an orbital shaker at room temperature to induce cell lysis and the luminescence is then measured using a luminometer. The data is analyzed and IC50s are determined using GraphPad Prism 4 software. […]
Provide the recorded Toxicity % Inhibition at 100 μM (1 dose) for the entries that follow.
One number for each entry, in %.

> print(dat)
                            smilesstructure  measurementunit  measuredresult
1  Cn1cc(CCC(C)(C)C)c(-c2cc(NC(=O)c3cccc(Cl)c3F)ccc2O)n1                %             4.2

// batch mode: one Toxicity % Inhibition at 100 μM (1 dose) value per listed entry
1. Cn1cc(C#CC(C)(C)C)c(-c2cc([N+](=O)[O-])ccc2NC2CCCCC2)n1
2. Cn1cc(C#Cc2ccc(N)cc2)c(-c2cc(Cl)ccc2O)n1
3. Cn1cc(C#CC(C)(C)C)c(-c2cc([N+](=O)[O-])ccc2NC(=O)c2cc(C(F)(F)F)ccc2F)n1
4. Cn1cc(C#CC(C)(C)C)c(-c2cc(-c3cccc(Cl)c3)ccc2O)n1
5. Cn1cc(C#CC(C)(C)C)c(-c2cc([N+](=O)[O-])ccc2NCc2cccc3ccccc23)n1
6. Cn1cc(C#CCC2CCCCC2)c(-c2ccccc2O)n1
7. Cn1cc(C#CC(C)(C)C)c(-c2cc(NC(=O)c3ccc(Cl)c(Cl)c3)ccc2O)n1

9.5
49.2
10.9
25.3
10.4
26.4
28.8

Parameter requested: Toxicity % Inhibition at 100 μM (1 dose). Apply to each item below.
1. Cn1cc(C#CC(C)(C)C)c(-c2cc(Cl)ccc2O)n1
2. Cn1cc(C#CC(C)(C)C)c(-c2cc([N+](=O)[O-])ccc2NCc2c(Cl)cccc2Cl)n1
3. Cc1cnc(Nc2ccc([N+](=O)[O-])cc2-c2nn(C)cc2C#CC(C)(C)C)s1
4. Cn1cc(C#CC(C)(C)C)c(-c2cc([N+](=O)[O-])ccc2NCc2cc(F)cc(F)c2)n1
5. Cn1cc(-c2ccc(O)c(-c3nn(C)cc3C#CC(C)(C)C)c2)cn1
6. Cn1cc(C#CC(C)(C)C)c(-c2cc([N+](=O)[O-])ccc2NCCCNc2ccc([N+](=O)[O-])cc2-c2nn(C)cc2C#CC(C)(C)C)n1
7. Cn1cc(C#CC(C)(C)C)c(-c2cc([N+](=O)[O-])ccc2NCc2c(F)c(F)cc(F)c2F)n1

21.5
12.6
23.2
13.0
24.3
15.9
18.7

// input: 2 compounds below; output: Toxicity % Inhibition at 100 μM (1 dose) for each
1. CCCCCC#Cc1cn(C)nc1-c1cc(Cl)ccc1O
2. Cn1nc(-c2ccccc2O)c(C#CCCCC#N)c1-c1ccccc1

39.8
13.7

###

Test system: Huh-Luc-Neo cells
experimentalDetails: Cell Titer-Glo Cell Viability Assay
Assay type: cell-based, human
conditions: inhibition of cell viability at 100 μM, 1 dose, conditions identical to HCV Replicon Luciferase Assay (48 h)
For each entry below, report its Toxicity % Inhibition at 100 μM (1 dose) value.
Give bare numbers, in %.

Below, 3 compounds whose answers are already recorded.
> print(dat)
                                   compound        studytarget  measuredresult
1  Cn1cc(C#CC(C)(C)C)c(-c2cc([N+](=O)[O-])ccc2NCc2ccc(I)cc2)n1  Huh-Luc-Neo cells            16.6
2  Cn1cc(C#CC(C)(C)C)c(-c2cc([N+](=O)[O-])ccc2NCc2c(F)c(F)c(F)c(F)c2F)n1  Huh-Luc-Neo cells            12.5
3  C=CCNc1ccc([N+](=O)[O-])cc1-c1nn(C)cc1C#CC(C)(C)C  Huh-Luc-Neo cells            21.8

For each of the items listed, what is its Toxicity % Inhibition at 100 μM (1 dose)?
1. Cn1cc(C#CC(C)(C)C)c(-c2cc([N+](=O)[O-])ccc2NC(=O)COc2ccccc2)n1 [VQ_36908]
2. Cn1nc(-c2cc(Br)ccc2O)c(C#CC(C)(C)C)c1C#CCCCC#N
3. Cn1cc(C#CC(C)(C)C)c(-c2cc([N+](=O)[O-])ccc2NC(=O)c2ccccc2C(F)(F)F)n1
4. Cc1cc(O)c(-c2nn(C)cc2C#CCCCC#N)cc1Cl

1. 22.7
2. 18.3
3. 14.0
4. 21.1

Give recorded Toxicity % Inhibition at 100 μM (1 dose). Cn1cc(C#Cc2ccc(N)cc2)c(-c2ccccc2O)n1 63.8
